# Test system: L. donovani HU3 strain in mouse peritoneal macrophages
# testDetails: Assay for proliferation of Leishmania parasites in mouse peritoneal macrophages
# Format: cell-based, Leishmania donovani
# testConditions: Leishmania donovani, Peritoneal macrophage, read-out: L. donavani Macrophage EC50
The following molecules are shown together with reported EC50 values.

Some molecules with recorded EC50:
Exam item: If you can, please state the reported EC50 value of Cc1cnc2nc(-c3cc(NC(=O)c4nccs4)ccc3Cl)[nH]c2c1 .
Marked response: > 37.9 µM

Exam item: Give the measured EC50 of C[C@@H](CO)NCc1cnc2nc(-c3cc(NC(=O)c4ccco4)ccc3Cl)[nH]c2c1 .
Marked response: > 50 µM

---
Exam item: Given the entry Cc1cnc2nc(-c3cc(NC(=O)C4CCO4)ccc3Cl)[nH]c2c1 (centres unmarked) , report its measured EC50.
Marked response: > 50 µM

Exam item: Dear colleague, I am looking for the recorded EC50 of the following molecule: Cc1cnc2nc(-c3cc(NC(=O)c4cnco4)ccc3Cl)[nH]c2c1
Marked response: > 50 µM

Exam item: Give the measured EC50 of Cc1cnc2nc(-c3cc(NC(=O)CCO)ccc3Cl)[nH]c2c1 .
Marked response: > 50 µM

Exam item: For the molecule O=C(CCN1CCCCC1)Nc1ccc(F)c(-c2nc3ncc(Cl)cc3[nH]2)c1 , what EC50 is on record?
Marked response: > 35.3 µM

Exam item: # get_value(readout='EC50', item= Cc1cnc2nc(-c3cc(NC(=O)c4ccc(N5CCOCC5)cc4)ccc3Cl)[nH]c2c1 )
Marked response: > 19.1 µM

Exam item: For the molecule shown here, CN(C)C(=O)Nc1ccc(F)c(-c2nc3ncc(Cl)cc3[nH]2)c1 , give the reported EC50.
Marked response: > 50 µM
